system_tested: UniProtKB Q12809
Sequence (Q12809 whole entry): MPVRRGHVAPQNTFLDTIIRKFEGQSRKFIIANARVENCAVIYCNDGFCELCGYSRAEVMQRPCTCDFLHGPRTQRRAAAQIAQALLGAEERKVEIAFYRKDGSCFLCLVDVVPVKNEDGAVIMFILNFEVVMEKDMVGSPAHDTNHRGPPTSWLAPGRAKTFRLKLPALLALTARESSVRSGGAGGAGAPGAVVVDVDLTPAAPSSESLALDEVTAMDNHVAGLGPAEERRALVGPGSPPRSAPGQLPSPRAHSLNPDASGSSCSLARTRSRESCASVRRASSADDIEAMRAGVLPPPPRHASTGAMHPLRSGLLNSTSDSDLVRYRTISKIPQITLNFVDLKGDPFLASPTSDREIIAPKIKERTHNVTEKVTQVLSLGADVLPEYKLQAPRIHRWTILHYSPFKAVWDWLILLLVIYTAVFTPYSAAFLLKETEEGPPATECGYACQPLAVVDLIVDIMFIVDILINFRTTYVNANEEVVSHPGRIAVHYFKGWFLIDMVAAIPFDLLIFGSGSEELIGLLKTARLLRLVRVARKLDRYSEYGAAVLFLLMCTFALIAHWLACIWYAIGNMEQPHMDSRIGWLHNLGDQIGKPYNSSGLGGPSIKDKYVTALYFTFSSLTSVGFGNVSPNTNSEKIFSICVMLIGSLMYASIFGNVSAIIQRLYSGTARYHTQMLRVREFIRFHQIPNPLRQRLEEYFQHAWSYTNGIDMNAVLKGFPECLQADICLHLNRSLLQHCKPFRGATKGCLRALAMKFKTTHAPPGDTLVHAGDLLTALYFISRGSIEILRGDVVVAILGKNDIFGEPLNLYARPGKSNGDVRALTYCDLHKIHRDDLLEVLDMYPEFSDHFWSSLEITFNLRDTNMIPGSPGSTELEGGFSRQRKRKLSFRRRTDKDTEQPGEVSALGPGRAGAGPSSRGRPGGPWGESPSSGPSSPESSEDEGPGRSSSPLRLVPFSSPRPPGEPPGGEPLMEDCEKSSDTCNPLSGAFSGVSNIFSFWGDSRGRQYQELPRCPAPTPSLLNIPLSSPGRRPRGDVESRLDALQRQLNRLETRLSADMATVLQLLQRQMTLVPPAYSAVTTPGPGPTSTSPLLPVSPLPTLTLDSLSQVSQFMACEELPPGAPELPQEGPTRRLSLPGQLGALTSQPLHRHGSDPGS
protocol_notes: Displacement of dofetilide from human ERG transfected in HEK293 cells by fluorescence polarization assay; note: test concentration or dose not given here
measure_name: inhibition (INH) (%)
Please state the figure in %; there is no need to write the unit.

Record excerpt, results attached:
{"columns": ["smi", "inhibition (INH), %"],
 "data": [
  ["NC(=O)c1nn(-c2ccc(F)cc2)c2c1CCc1ccc(NC(=O)c3cc(N4CCN(Cc5cn[nH]c5)CC4)ncc3Cl)cc1-2", 78],
  ["COC(=O)Cn1cc(CN2CCN(c3cc(C(=O)Nc4ccc5c(c4)-c4c(c(C(N)=O)nn4-c4ccc(F)cc4)CC5)c(Cl)cn3)CC2)cn1", 24],
  ["CCOC(=O)CCn1cc(CN2CCN(c3cc(C(=O)Nc4ccc5c(c4)-c4c(c(C(N)=O)nn4-c4ccc(F)cc4)CC5)c(Cl)cn3)CC2)cn1", 90],
  ["CSCCNC(=O)Cn1cc(CN2CCN(c3cc(C(=O)Nc4ccc5c(c4)-c4c(c(C(N)=O)nn4-c4ccc(F)cc4)CC5)c(Cl)cn3)CC2)cn1", 98],
  ["Cn1cc(CN2CCN(c3cc(C(=O)Nc4ccc5c(c4)-c4c(c(C(N)=O)nn4-c4cccc(F)c4)CC5)c(Cl)cn3)CC2)cn1", 83],
  ["NC(=O)Cn1cc(CN2CCN(c3cc(C(=O)Nc4ccc5c(c4)-c4c(c(C(N)=O)nn4-c4ccc(F)cc4)CC5)c(Cl)cn3)CC2)cn1", 38],
  ["COCCCn1cc(CN2CCN(c3cc(C(=O)Nc4ccc5c(c4)-c4c(c(C(N)=O)nn4-c4ccc(F)cc4)CC5)c(Cl)cn3)CC2)cn1", 76],
  ["CCOC(=O)Cn1cc(CN2CCN(c3cc(C(=O)Nc4ccc5c(c4)-c4c(c(C(N)=O)nn4-c4ccc(F)cc4)CC5)c(Cl)cn3)CC2)cn1", 95],
  ["CN(C)C(=O)Cn1cc(CN2CCN(c3cc(C(=O)Nc4ccc5c(c4)-c4c(c(C(N)=O)nn4-c4ccc(F)cc4)CC5)c(Cl)cn3)CC2)cn1", 50],
  ["NC(=O)c1nn(-c2ccc(F)cc2)c2c1CCc1ccc(NC(=O)c3cc(N4CCN(Cc5cnn(CC(=O)N(CCO)CCO)c5)CC4)ncc3Cl)cc1-2", -1]
]}

In plain terms, CN(C)CCCn1cc(CN2CCN(c3cc(C(=O)Nc4ccc5c(c4)-c4c(c(C(N)=O)nn4-c4ccc(F)cc4)CC5)c(Cl)cn3)CC2)cn1 has a documented inhibition (INH) of 42

In plain terms, COCCOCCCn1cc(CN2CCN(c3cc(C(=O)Nc4ccc5c(c4)-c4c(c(C(N)=O)nn4-c4ccc(F)cc4)CC5)c(Cl)cn3)CC2)cn1 has a documented inhibition (INH) of 69

Values from ChEMBL document CHEMBL1667819
